# maps each entry to its growth inhibition
- assay.procedure: NCI Yeast Anticancer Drug Screen. Data for the mec2-1 strain (AID 157)
- settings: S. cerevisiae mec2-1 strain, at 50.0 µM, active compounds read high
About 79,000 compounds went through this panel and 15% of them were active in at least one assay; those are over-represented in the sample as a whole.
readout.name: growth inhibition (%)

| molecule | readout.name | measurement.unit | recorded.measurement |
| --- | --- | --- | --- |
| CCCCCC(=O)Oc1c(C(C)CC)cc([N+](=O)[O-])cc1[N+](=O)[O-] (centres undefined) | growth inhibition | % | 97 |
| CC[C@H]1CN(C)[C@H]2Cc3c([nH]c4ccccc34)C(=O)C[C@H]1C2C(=O)OC (some centres undefined) | growth inhibition | % | -0.95 |
| CC(=O)Nc1cc(C)c(C(=O)OC(=O)c2cc(C)c(NC(C)=O)cc2C)cc1C | growth inhibition | % | -10.1 |
| Cc1cccc(C)c1NCC1CO1 (centres undefined) | growth inhibition | % | -14.3 |
| O=C(O)C1CCc2ccccc2C1 (centres undefined) | growth inhibition | % | 4.05 |
| CCCCCCCCCCC1OCC(CC)([N+](=O)[O-])CO1 (centres undefined) | growth inhibition | % | -27.9 |
| O=C1NC(=O)N2CCCOC2C1c1ccccc1 (centres undefined) | growth inhibition | % | -5.5 |
| Oc1ccc(Br)cc1C=Nc1ccccc1 | growth inhibition | % | 18.9 |
| OC(C1=NNC(C(O)c2ccccc2)=NN1)c1ccccc1 (centres undefined) | growth inhibition | % | 4.7 |
| CCCCCOS(C)(=O)=O | growth inhibition | % | -14.2 |
| COc1ccccc1/C=N/N1C(=O)C2C3C=CC(O3)C2C1=O (centres undefined) | growth inhibition | % | 9.8 |
| CCc1nc2c(cnn2C)c(=O)n1-c1ccccc1 | growth inhibition | % | -6.35 |
| CC1(C)N=C(C(N)=O)c2[nH]cnc2N1 | growth inhibition | % | 4.35 |
| CCCCc1c(O)nc(NCCCC(N)C(=O)O)[nH]c1=O (centres undefined) | growth inhibition | % | -13.8 |
| O=C(O)c1cccc2c1C1CCC2c2cccc(C(=O)O)c21 | growth inhibition | % | 0.95 |
| O=C(Nc1ccccc1F)C(c1ccccc1)c1ccccc1 | growth inhibition | % | 8.95 |
| CC(=O)Nc1cnc2ccccc2c1 | growth inhibition | % | -0.4 |
| N/N=C(\C(=O)Nc1c(Cl)cc([N+](=O)[O-])cc1Cl)C(c1cnc2ccc([N+](=O)[O-])cc2n1)[N+](=O)[O-] (centres undefined) | growth inhibition | % | 0.7 |
| COc1ccc(Cc2cn(C)cc(Cc3ccc(OC)cc3)c2=O)cc1 | growth inhibition | % | 0.8 |
| COCC(N=CN1CCCc2ccccc2[C@@H]1CCCCl)C(C)(C)C (some centres undefined) | growth inhibition | % | 10.1 |
| COc1ccc([N+](=O)[O-])cc1NC(=O)c1ccc(Cl)cc1 | growth inhibition | % | 29.7 |
| O/N=C1\CCn2cccc21 | growth inhibition | % | 15.1 |
| Nc1nc(-c2ccccc2)nc(N)c1C=O | growth inhibition | % | -21.9 |
| CCOc1ccc(NC(=S)NC=C(C#N)C#N)cc1 | growth inhibition | % | -12.6 |
| CCOC(=O)c1cc(-n2nnc3ccccc32)cn1C | growth inhibition | % | -23.4 |
| O=C(OCCc1ccccc1)C(O)c1ccccc1 (centres undefined) | growth inhibition | % | -6.05 |
| CCCCCCCCC/C=C1\CCC(CN2CCOCC2)C1=O (centres undefined) | growth inhibition | % | 92.8 |
| COC(=O)Cc1nc2ccccc2[nH]c1=O | growth inhibition | % | -3.25 |
| C[N+](C)(Cc1ccccc1)c1ccccc1 | growth inhibition | % | -6 |
